- test.system: human NLRP3 (Homo sapiens)
- Sequence (Q96P20 whole entry): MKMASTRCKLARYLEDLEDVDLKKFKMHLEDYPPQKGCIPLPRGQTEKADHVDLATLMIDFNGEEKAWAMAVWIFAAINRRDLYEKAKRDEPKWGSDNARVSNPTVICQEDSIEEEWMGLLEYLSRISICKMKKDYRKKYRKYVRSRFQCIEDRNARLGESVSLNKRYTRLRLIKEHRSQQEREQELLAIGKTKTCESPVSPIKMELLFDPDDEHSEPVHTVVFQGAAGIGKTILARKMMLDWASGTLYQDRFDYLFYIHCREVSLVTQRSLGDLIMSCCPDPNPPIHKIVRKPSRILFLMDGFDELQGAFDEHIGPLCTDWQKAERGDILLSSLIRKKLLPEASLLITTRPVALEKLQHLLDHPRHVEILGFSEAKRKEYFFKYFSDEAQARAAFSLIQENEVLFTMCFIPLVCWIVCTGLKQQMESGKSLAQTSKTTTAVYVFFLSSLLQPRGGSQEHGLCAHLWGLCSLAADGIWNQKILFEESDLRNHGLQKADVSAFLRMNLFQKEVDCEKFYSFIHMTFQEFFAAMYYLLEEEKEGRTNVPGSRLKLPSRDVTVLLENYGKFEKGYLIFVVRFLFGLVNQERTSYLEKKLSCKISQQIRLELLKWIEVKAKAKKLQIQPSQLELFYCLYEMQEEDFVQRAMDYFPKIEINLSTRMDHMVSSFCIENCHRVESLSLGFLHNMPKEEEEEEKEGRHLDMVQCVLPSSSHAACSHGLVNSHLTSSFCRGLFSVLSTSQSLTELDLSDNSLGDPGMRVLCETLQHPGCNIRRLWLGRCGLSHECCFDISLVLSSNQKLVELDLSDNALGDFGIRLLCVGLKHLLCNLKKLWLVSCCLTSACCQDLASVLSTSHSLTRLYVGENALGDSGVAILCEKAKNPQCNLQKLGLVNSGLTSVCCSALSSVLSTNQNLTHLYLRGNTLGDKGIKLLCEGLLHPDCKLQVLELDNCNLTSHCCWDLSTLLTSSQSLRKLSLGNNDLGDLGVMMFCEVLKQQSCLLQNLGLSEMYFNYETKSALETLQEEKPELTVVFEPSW
- measurement.description: Human PBMC NLRP3 Assay (IL-1β release)
- Format: cell-based
- Set-up: Human PBMCs (Normal): iXCells Cat #10HU-003; host or cells: human PBMCs (normal donors), LPS-primed, nigericin-stimulated
- condition.details: human PBMCs, LPS priming 4 h, nigericin stimulation 1 h; class symbols
metric.name: IC50

Answered examples (4):
compound: O=C(O)CCCNC(=O)CN1C(=O)C2(CCCC2)c2cc(Br)ccc21 [Compound 5]
test.system: human NLRP3 (Homo sapiens)
measurement: > 10000 nM

compound: CC1(C)C(=O)N(CC(=O)NCCCC(=O)O)c2c(O)cc(Br)cc21 [Compound 16]
test.system: human NLRP3 (Homo sapiens)
measurement: < 300 nM

compound: C[C@H](CNC(=O)CN1C(=O)C(C)(C)c2cc(Br)cc(O)c21)CC(=O)O (single isomer, unassigned) [42B*]
test.system: human NLRP3 (Homo sapiens)
measurement: < 300 nM

compound: CC(C)(CNC(=O)CN1C(=O)C(C)(C)c2cc(Br)ccc21)CC(=O)O [Compound 13]
test.system: human NLRP3 (Homo sapiens)
measurement: < 300 nM

Next:
# input I have this compound here, C[C@@H](CCC(=O)O)NC(=O)CN1C(=O)C(C)(C)c2c(F)c(C3CC3)cc(F)c21 [Compound 59A] , and I need its recorded IC50.
# output < 300 nM
